Molecular target: the molecule itself
Assay: microscale thermophoresis (MST), self-association; MST

# Protein, Kd / µM
data = [
    ("HGDGSFSDEMNTILDNLAARDFINWLIQTKITD (also called Gattex) [teduglutide]", 24),
]

Values compiled from patent US20200199192A1.
